cytotoxicity at 10 µM for assorted molecules
experiment: Toxicity liver stage against HepG2, at 10uM; type: cell-based; set-up: test concentration 10 uM, cell line HepG2-A16-CD81EGFP; conditions: human, HepG2-A16-CD81EGFP cells; read-out: INHIBITION
Return type: number; implicit unit %.

{"Molecule": "CSCc1noc(CN2CCC3(CC2)CC(=O)N(CC(C)C)C3)n1", "Experimental Result": -0.0813}
{"Molecule": "COc1cc(C)c(CN2CCC3(CC2)[C@H](O)C[C@@H]3OCCN)cc1C", "Experimental Result": 13.6}
{"Molecule": "Cc1ccc(C(=O)NCCCNS(C)(=O)=O)cc1C", "Experimental Result": -1.66}
{"Molecule": "O=C(COCCc1ccccc1)N1CCCC(n2cncn2)C1 (stereo unspecified)", "Experimental Result": -27.8}

-- ask Dear colleague, I am looking for the recorded cytotoxicity at 10 µM of the following molecule: CCN(CC)CCn1cnc(-c2ccccc2)c1-c1cnc(C)s1
-- reply 3.33

-- ask Dear colleague, I am looking for the recorded cytotoxicity at 10 µM of the following molecule: Fc1ccc(OCCCN2CCCC(Cn3cncn3)C2)cc1 (stereo unspecified)
-- reply -7.81

* * *

experiment: Toxicity liver stage against HepG2, at 10uM; format: cell-based; set-up: test concentration 10 uM, cell line HepG2-A16-CD81EGFP; details: human, HepG2-A16-CD81EGFP cells; read-out: INHIBITION
cytotoxicity at 10 µM for assorted molecules
Return type: number; implicit unit %.

Some molecules with recorded cytotoxicity at 10 µM:
{"Molecule": "Cc1nn(C)c2cn(C(C)C(=O)NCc3cccc(F)c3)nc12 (stereo not given)", "cytotoxicity at 10 µM [%]": 6.61}
{"Molecule": "O=C(CN1CCC(c2cc(=O)n3c(n2)CCCCC3)CC1)N1CCCC1", "cytotoxicity at 10 µM [%]": 4.62}
{"Molecule": "O=C(CC1CCCC1)Nc1ccc(-n2cc(Br)cn2)nc1", "cytotoxicity at 10 µM [%]": -51.2}
{"Molecule": "O=C(c1cscn1)N1CCCC(n2cncn2)C1 (stereo not given)", "cytotoxicity at 10 µM [%]": 0.301}
{"Molecule": "CCc1cc(N2CCC(NC3CCOCC3)CC2)nc(N(C)C)n1", "cytotoxicity at 10 µM [%]": -14.5}
{"Molecule": "CCC(C)NC(=O)c1ccc(NC(=O)CCCn2cncn2)c(C)c1 (stereo not given)", "cytotoxicity at 10 µM [%]": -10.7}
{"Molecule": "O=C(Nc1c(F)cccc1Oc1ccccc1)C1CCS(=O)(=O)C1 (stereo not given)", "cytotoxicity at 10 µM [%]": 1.91}
{"Molecule": "COc1ccccc1N1CCN(C(=O)NC(C)c2nncn2C)CC1 (stereo not given)", "cytotoxicity at 10 µM [%]": -4.23}
{"Molecule": "O=C(Cn1nc(-c2ccc(F)cc2)oc1=O)NCc1ccncc1", "cytotoxicity at 10 µM [%]": -9.21}
{"Molecule": "O=C1CCC2(CCNCC2)CN1CCCOc1cccnc1", "cytotoxicity at 10 µM [%]": -13.2}

-- ask Dear colleague, I am looking for the recorded cytotoxicity at 10 µM of the following molecule: Cn1cccc1C(=O)NCc1cn2c(n1)CN(Cc1cccnc1)CC2
-- reply -113

-- ask Dear colleague, I am looking for the recorded cytotoxicity at 10 µM of the following molecule: CNC(=O)COC(=O)c1ccoc1CN1c2ccccc2CC1C (stereo not given)
-- reply 0.165

-- ask Dear colleague, I am looking for the recorded cytotoxicity at 10 µM of the following molecule: CN(Cc1c(Cl)ccc2cccnc12)CC(C)(CO)CO
-- reply 7.6

-- ask Dear colleague, I am looking for the recorded cytotoxicity at 10 µM of the following molecule: CCc1c(O)nc2nc(N3CCOCC3)nn2c1C
-- reply 10.8

-- ask Dear colleague, I am looking for the recorded cytotoxicity at 10 µM of the following molecule: Cc1cc(F)cc(NC(=O)N(C)CC(C)(CO)CO)c1
-- reply -1.44

-- ask Dear colleague, I am looking for the recorded cytotoxicity at 10 µM of the following molecule: Cc1nc(C)n(CC2CN(CCCOc3ccccc3C)CCO2)n1 (stereo not given)
-- reply 5.63

-- ask Dear colleague, I am looking for the recorded cytotoxicity at 10 µM of the following molecule: Cc1c(C(=O)O)cnn1-c1ccc(-c2nc(C3CC3)no2)cn1
-- reply 0.88

-- ask Dear colleague, I am looking for the recorded cytotoxicity at 10 µM of the following molecule: CC(C)CCC1=NC2(CCN(C(=O)N3CCN(C)CC3)CC2)C(=O)N1
-- reply -6.08

-- ask Dear colleague, I am looking for the recorded cytotoxicity at 10 µM of the following molecule: Fc1ccc(CC2CCN(Cc3cscn3)CC2)cc1
-- reply -7.27

-- ask Dear colleague, I am looking for the recorded cytotoxicity at 10 µM of the following molecule: COc1ccc(O[C@H]2COCCN(Cc3cccc4c3OCO4)C2)cc1
-- reply 0.375

-- ask Dear colleague, I am looking for the recorded cytotoxicity at 10 µM of the following molecule: CCc1ccc(C(=O)NC2CCCN(c3ccn(C)n3)C2=O)o1 (stereo not given)
-- reply -2.43

-- ask Dear colleague, I am looking for the recorded cytotoxicity at 10 µM of the following molecule: CCOc1ncccc1CNC(=O)NC1CCOc2ccccc21 (stereo not given)
-- reply -9.65

-- ask Dear colleague, I am looking for the recorded cytotoxicity at 10 µM of the following molecule: FC(F)(F)c1ccc(-c2cnc(C3CCCN3)cn2)cc1 (stereo not given)
-- reply -1.12

-- ask Dear colleague, I am looking for the recorded cytotoxicity at 10 µM of the following molecule: COc1ccc(C(C)N2CCC(NS(C)(=O)=O)CC2)cc1Cl (stereo not given)
-- reply -41.2

-- ask Dear colleague, I am looking for the recorded cytotoxicity at 10 µM of the following molecule: Cc1cc(-c2cnc(N3CCSCC3)nc2C(C)C)on1
-- reply 16.8

* * *

assay: Toxicity liver stage against HepG2, at 10uM; type: cell-based; design: test concentration 10 uM, cell line HepG2-A16-CD81EGFP; settings: human, HepG2-A16-CD81EGFP cells; read-out: INHIBITION
Quantity Kind: cytotoxicity at 10 µM (%)
Return type: number; implicit unit %.

Some compounds with recorded cytotoxicity at 10 µM:
{"Compound": "O=C(NCCNc1ccccn1)Nc1cc(C(F)(F)F)c[nH]c1=O", "Value Unit": "%", "Experimental Result": -16.5}
{"Compound": "COc1cc(C)nc(N2CCN(C(=O)COCC(F)(F)F)CC2)n1", "Value Unit": "%", "Experimental Result": -9.62}
{"Compound": "Cc1oncc1C(=O)N1CC[C@H]2[C@@H]1CCC(=O)N2CC1CC1", "Value Unit": "%", "Experimental Result": 6.42}
{"Compound": "CC(c1cccc(-c2nccn2CCc2ccccn2)c1)N(C)C (stereo not drawn)", "Value Unit": "%", "Experimental Result": 7.62}
{"Compound": "CS(=O)(=O)Cc1nc(CNc2ccc(F)c(F)c2)cs1", "Value Unit": "%", "Experimental Result": -6.92}

Now consider the entry below.
-- ask Dear colleague, I am looking for the recorded cytotoxicity at 10 µM of the following compound: CCC[C@H]1CN(Cc2ccc(N(C)C)nc2)C[C@@H]1NC(=O)CCOC
-- reply 15.5

* * *

experiment: Toxicity liver stage against HepG2, at 10uM; assay type: cell-based; parameters: test concentration 10 uM, cell line HepG2-A16-CD81EGFP; conditions: human, HepG2-A16-CD81EGFP cells; read-out: INHIBITION
cytotoxicity at 10 µM for assorted compounds
Return type: number; implicit unit %.

Some compounds with recorded cytotoxicity at 10 µM:
{"Compound": "CCOC(=O)c1nnc2ccccc2c1N1CCOC(C)(C)C1", "Quantity Kind": "cytotoxicity at 10 µM", "Value Unit": "%", "Experimental Result": 13.8}
{"Compound": "O=C(c1ccc(-n2cnnc2)cc1)N1CCC(Nc2cccnn2)CC1", "Quantity Kind": "cytotoxicity at 10 µM", "Value Unit": "%", "Experimental Result": -6.12}
{"Compound": "Cc1cc(N(C)CCC(O)c2ccccc2)n2nccc2n1 (stereo not drawn)", "Quantity Kind": "cytotoxicity at 10 µM", "Value Unit": "%", "Experimental Result": -2.84}
{"Compound": "Fc1ccc(C2CCCCN2Cc2cc(-c3ccccn3)no2)cc1 (stereo not drawn)", "Quantity Kind": "cytotoxicity at 10 µM", "Value Unit": "%", "Experimental Result": -3.88}
{"Compound": "COC(=O)c1cc(OCC2CCC2)cc(C(=O)NC2CCC(O)CC2)c1 (stereo not drawn)", "Quantity Kind": "cytotoxicity at 10 µM", "Value Unit": "%", "Experimental Result": -14.2}

-- ask Dear colleague, I am looking for the recorded cytotoxicity at 10 µM of the following compound: CC(=O)N(C)c1nc(Cn2nnnc2C(C)C)cs1
-- reply -2.01

-- ask Dear colleague, I am looking for the recorded cytotoxicity at 10 µM of the following compound: CCc1nc(CN2CCN(C(=O)C3(C#N)CCCCC3)CC2)cs1
-- reply -3.6
